Attribution: paper PMC9005681

# testedTarget: cloned human or rodent CNS receptors, channels, and transporters (PDSP panel) (Homo sapiens, UniProt P35367)
# Construct: expressed in transfected cells
# Sequence (P35367 whole entry): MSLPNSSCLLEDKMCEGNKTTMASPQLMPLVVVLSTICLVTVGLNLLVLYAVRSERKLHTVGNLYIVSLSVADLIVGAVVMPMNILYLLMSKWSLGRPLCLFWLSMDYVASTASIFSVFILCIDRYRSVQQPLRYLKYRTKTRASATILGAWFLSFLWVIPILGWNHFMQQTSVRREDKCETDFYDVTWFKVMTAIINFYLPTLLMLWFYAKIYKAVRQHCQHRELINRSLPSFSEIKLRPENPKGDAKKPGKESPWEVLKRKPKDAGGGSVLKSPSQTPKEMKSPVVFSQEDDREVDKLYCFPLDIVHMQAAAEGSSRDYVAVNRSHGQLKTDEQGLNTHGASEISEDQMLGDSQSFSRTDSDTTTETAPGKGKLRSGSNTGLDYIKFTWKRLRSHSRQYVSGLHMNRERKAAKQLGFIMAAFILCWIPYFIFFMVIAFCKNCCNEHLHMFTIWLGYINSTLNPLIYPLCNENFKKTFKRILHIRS
# testProtocol: PDSP GPCR panel primary binding assays at 10 μM
# conditionNotes: H1; primary assay, replicate 3
quantityMeasured: Inhibition 3 (%)
Give bare numbers, in %.

// solved cases for Inhibition 3 follow
CCC(=O)N1CCC(NC(=O)Nc2ccc(OC(F)(F)F)cc2)CC1 [UNC10302681A, TPPU]    65.55
O=C(NC1CC1)C(=O)C(Cc1ccccc1)NC(=O)[C@H]1CCC(=O)N1Cc1ccccc1 (stereo partly shown) [UNC10302676A, ABT-957 (Alicapistat)]    44.57
CC(=O)N1CCC(NC(=O)NC23CC4CC(CC(C4)C2)C3)CC1 [UNC10302683A, AR9281]    68.77

Turning to the following compound.
q: # get_value(readout='Inhibition 3', item= CNc1nc(C)nc(N[C@H]2CCC[C@@H](C(=O)NCc3ccc(C#N)cc3C(F)(F)F)C2)n1 [UNC10302679A, GSK2256294A] )
a: 68.14

---

Consider the following molecules; for each one, report its Inhibition 2.
# Test system: cloned human or rodent CNS receptors, channels, and transporters (PDSP panel)
# testProtocol: PDSP GPCR panel primary binding assays at 10 μM
# conditionNotes: Receptor DOR; primary assay, 10 μM
# Procedure: GPCR panel: Screening against the receptors within the PDSP panel offers an assessment of off-target pharmacological activity at cloned human or rodent CNS receptors, channels, and transporters that could confound CNS-related phenotypes. A total of 46–47 primary binding assays were run in quadruplicate on these compounds at 10 μM, with follow-up secondary binding assays in 11-point dose-response in triplicate for select compounds versus select receptors. […]
Numbers only, in %.

Please give Inhibition 2 for each item listed below.
1. O=c1oc2ccccc2cc1-c1cn2cc(Cc3ccc(F)cc3)sc2n1 [UNC10302680A, iMDK]
2. CCCCNc1ncc2c(-c3ccc(CN4CCN(C)CC4)cc3)cn([C@H]3CC[C@H](O)CC3)c2n1 [UNC2025C, UNC2025]
3. Cl.NC(=O)c1cnc(N[C@@H]2CCCC[C@@H]2N)nc1Nc1cccc(-n2nccn2)c1 [UNC10302682A, P505-15 (PRT06207 HCl)]
4. c1cn2cc(-c3ccc4cn[nH]c4c3)nc(Nc3ccc(N4CCOCC4)cc3)c2n1 [UNC10302678A, Entospletinib (GS-9973)]

a:
1. -14.61
2. -6.66
3. -4.86
4. -15.52

---

I'd appreciate it if you could supply Inhibition 4 values for the items below.
# Tested on: cloned human or rodent CNS receptors, channels, and transporters (PDSP panel)
# testProtocol: PDSP GPCR panel primary binding assays at 10 μM
# conditionNotes: BZP Rat Brain Site; primary assay, replicate 4
# Protocol: GPCR panel: Screening against the receptors within the PDSP panel offers an assessment of off-target pharmacological activity at cloned human or rodent CNS receptors, channels, and transporters that could confound CNS-related phenotypes. A total of 46–47 primary binding assays were run in quadruplicate on these compounds at 10 μM, with follow-up secondary binding assays in 11-point dose-response in triplicate for select compounds versus select receptors. […]
Answers are plain numbers, in %.

Solved cases (3 shown):
O=C(NC1CC1)C(=O)C(Cc1ccccc1)NC(=O)[C@H]1CCC(=O)N1Cc1ccccc1 (stereo partly shown) [UNC10302676A, ABT-957 (Alicapistat)]    0.83
CNc1nc(C)nc(N[C@H]2CCC[C@@H](C(=O)NCc3ccc(C#N)cc3C(F)(F)F)C2)n1 [UNC10302679A, GSK2256294A]    -0.97
CC(=O)N1CCC(NC(=O)NC23CC4CC(CC(C4)C2)C3)CC1 [UNC10302683A, AR9281]    9.27

Now consider the entry below.
q: Form field: Inhibition 4 recorded for CCC(=O)N1CCC(NC(=O)Nc2ccc(OC(F)(F)F)cc2)CC1 [UNC10302681A, TPPU] with cloned human or rodent CNS receptors, channels, and transporters (PDSP panel) (enter value)
a: 6.33

---

# testedTarget: cloned human or rodent CNS receptors, channels, and transporters (PDSP panel) (Homo sapiens)
# Construct: expressed in transfected cells
# testProtocol: PDSP GPCR panel primary binding assays at 10 μM
# conditionNotes: Receptor 5-HT2A; primary assay, 10 μM
quantityMeasured: Inhibition 3 (%)
Answers are plain numbers, in %.

// below: answered compounds
O=c1oc2ccccc2cc1-c1cn2cc(Cc3ccc(F)cc3)sc2n1 [UNC10302680A, iMDK]    -8.41
c1cn2cc(-c3ccc4cn[nH]c4c3)nc(Nc3ccc(N4CCOCC4)cc3)c2n1 [UNC10302678A, Entospletinib (GS-9973)]    -19.59

// each compound listed below needs its Inhibition 3
1. Cl.NC(=O)c1cnc(N[C@@H]2CCCC[C@@H]2N)nc1Nc1cccc(-n2nccn2)c1 [UNC10302682A, P505-15 (PRT06207 HCl)]
2. CCCCNc1ncc2c(-c3ccc(CN4CCN(C)CC4)cc3)cn([C@H]3CC[C@H](O)CC3)c2n1 [UNC2025C, UNC2025]

a:
1. 8.53
2. 80.37

---

# testedTarget: Alpha1D receptor (Homo sapiens, UniProt P25100)
# Construct: expressed in transfected cells
# Sequence (P25100 whole entry): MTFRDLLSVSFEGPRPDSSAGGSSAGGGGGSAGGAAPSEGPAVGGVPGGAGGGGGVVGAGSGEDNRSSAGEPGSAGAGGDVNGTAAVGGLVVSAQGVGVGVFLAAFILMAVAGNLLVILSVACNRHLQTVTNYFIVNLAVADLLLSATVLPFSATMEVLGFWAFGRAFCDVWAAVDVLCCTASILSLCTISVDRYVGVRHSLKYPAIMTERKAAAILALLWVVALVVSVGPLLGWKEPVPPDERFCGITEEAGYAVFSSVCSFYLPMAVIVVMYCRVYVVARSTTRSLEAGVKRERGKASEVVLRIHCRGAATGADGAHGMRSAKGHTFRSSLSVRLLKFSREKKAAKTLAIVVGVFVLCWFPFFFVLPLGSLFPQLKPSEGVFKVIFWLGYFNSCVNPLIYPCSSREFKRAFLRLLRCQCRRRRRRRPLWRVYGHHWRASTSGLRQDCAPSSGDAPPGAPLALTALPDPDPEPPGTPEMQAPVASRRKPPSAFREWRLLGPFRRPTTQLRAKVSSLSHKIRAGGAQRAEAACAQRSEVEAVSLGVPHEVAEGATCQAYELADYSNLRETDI
# testProtocol: PDSP secondary binding, Alpha1D
# Set-up: species or system human or rodent
# conditionNotes: Receptor Alpha1D; secondary assay; read-out: Ki (nM) 1
quantityMeasured: Ki (nM)
One number for each entry, in nM.

q: Item: CCCCNc1ncc2c(-c3ccc(CN4CCN(C)CC4)cc3)cn([C@H]3CC[C@H](O)CC3)c2n1 [UNC2025C, UNC2025] Test system: Alpha1D receptor (Homo sapiens, UniProt P25100) Read-out: Ki Value: ?
a: 4960

---

# Tested on: cloned human or rodent CNS receptors, channels, and transporters (PDSP panel)
# testProtocol: PDSP GPCR panel primary binding assays at 10 μM
# conditionNotes: H4; primary assay, replicate 2
Respond with Satisfied for Inhibition 2 values of -10% and above, Not satisfied for values below.

CC(=O)N1CCC(NC(=O)NC23CC4CC(CC(C4)C2)C3)CC1 [UNC10302683A, AR9281]    Satisfied
CCC(=O)N1CCC(NC(=O)Nc2ccc(OC(F)(F)F)cc2)CC1 [UNC10302681A, TPPU]    Not satisfied
O=C(NC1CC1)C(=O)C(Cc1ccccc1)NC(=O)[C@H]1CCC(=O)N1Cc1ccccc1 (some centres unmarked) [UNC10302676A, ABT-957 (Alicapistat)]    Not satisfied
CNc1nc(C)nc(N[C@H]2CCC[C@@H](C(=O)NCc3ccc(C#N)cc3C(F)(F)F)C2)n1 [UNC10302679A, GSK2256294A]    Not satisfied

q: Identify whether the reported Inhibition 2 of the following molecule is -10% or greater: O=c1oc2ccccc2cc1-c1cn2cc(Cc3ccc(F)cc3)sc2n1 [UNC10302680A, iMDK]
a: Satisfied

---

# testedTarget: cloned human or rodent CNS receptors, channels, and transporters (PDSP panel) (Homo sapiens)
# Construct: expressed in transfected cells
# testProtocol: PDSP GPCR panel primary binding assays at 10 μM
# conditionNotes: 5-HT1B; primary assay, mean inhibition
# Experimental: GPCR panel: Screening against the receptors within the PDSP panel offers an assessment of off-target pharmacological activity at cloned human or rodent CNS receptors, channels, and transporters that could confound CNS-related phenotypes. A total of 46–47 primary binding assays were run in quadruplicate on these compounds at 10 μM, with follow-up secondary binding assays in 11-point dose-response in triplicate for select compounds versus select receptors. […]
quantityMeasured: Mean % (%)
Give bare numbers, in %.

CC(=O)N1CCC(NC(=O)NC23CC4CC(CC(C4)C2)C3)CC1 [UNC10302683A, AR9281]    -0.64
CCC(=O)N1CCC(NC(=O)Nc2ccc(OC(F)(F)F)cc2)CC1 [UNC10302681A, TPPU]    -0.64
O=C(NC1CC1)C(=O)C(Cc1ccccc1)NC(=O)[C@H]1CCC(=O)N1Cc1ccccc1 (stereo partly shown) [UNC10302676A, ABT-957 (Alicapistat)]    8.92

Query compound follows.
q: Find the recorded Mean % belonging to CNc1nc(C)nc(N[C@H]2CCC[C@@H](C(=O)NCc3ccc(C#N)cc3C(F)(F)F)C2)n1 [UNC10302679A, GSK2256294A] and report it.
a: -2.56

---

# testedTarget: cloned human or rodent CNS receptors, channels, and transporters (PDSP panel) (Homo sapiens, UniProt P18089)
# Construct: expressed in transfected cells
# Sequence (P18089 whole entry): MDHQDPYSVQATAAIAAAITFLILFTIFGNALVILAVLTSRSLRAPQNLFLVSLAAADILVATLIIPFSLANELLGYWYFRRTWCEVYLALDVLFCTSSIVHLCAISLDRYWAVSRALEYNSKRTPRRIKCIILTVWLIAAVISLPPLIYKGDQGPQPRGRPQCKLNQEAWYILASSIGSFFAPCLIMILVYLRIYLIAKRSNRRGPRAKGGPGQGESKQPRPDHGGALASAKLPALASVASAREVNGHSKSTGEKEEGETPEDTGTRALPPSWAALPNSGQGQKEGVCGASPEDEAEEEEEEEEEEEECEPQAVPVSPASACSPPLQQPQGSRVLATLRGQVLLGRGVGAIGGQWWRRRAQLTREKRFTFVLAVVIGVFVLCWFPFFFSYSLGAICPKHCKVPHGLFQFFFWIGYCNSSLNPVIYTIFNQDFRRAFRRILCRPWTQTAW
# testProtocol: PDSP GPCR panel primary binding assays at 10 μM
# conditionNotes: Receptor Alpha2B; primary assay, 10 μM
quantityMeasured: Inhibition 2 (%)
Numbers only, in %.

CCCCNc1ncc2c(-c3ccc(CN4CCN(C)CC4)cc3)cn([C@H]3CC[C@H](O)CC3)c2n1 [UNC2025C, UNC2025]    28.85
Cl.NC(=O)c1cnc(N[C@@H]2CCCC[C@@H]2N)nc1Nc1cccc(-n2nccn2)c1 [UNC10302682A, P505-15 (PRT06207 HCl)]    6.29
O=c1oc2ccccc2cc1-c1cn2cc(Cc3ccc(F)cc3)sc2n1 [UNC10302680A, iMDK]    1.88

Now look at this entry.
q: Recorded Inhibition 2 for c1cn2cc(-c3ccc4cn[nH]c4c3)nc(Nc3ccc(N4CCOCC4)cc3)c2n1 [UNC10302678A, Entospletinib (GS-9973)] , please?
a: 1.83
